- Species on record: Homo sapiens
- experimentNotes: Selectivity index, ratio of IC50 for human A431 cells harboring wild type EGFR to IC50 for human NCI-H1975 cells harboring EGFR L858R/T790M double mutant
Task for the reader: assign each of the following molecules its reported Ratio IC50.
One number for each entry.

The cases that follow already have their Ratio IC50 on record.
>>> recordedmeasurement("C=CC(=O)Nc1cccc(-n2c(=O)n(CCc3ccccc3)c(=O)c3cnc(Nc4ccc(N5CCC(N(C)C)CC5)cc4OC)nc32)c1")
11
>>> recordedmeasurement("C=CC(=O)Nc1cccc(-n2c(=O)n(Cc3ccccc3)c(=O)c3cnc(Nc4ccc(N5CCC(N(C)C)CC5)cc4OC)nc32)c1")
12
>>> recordedmeasurement("C=CC(=O)Nc1cccc(-n2c(=O)n(C(C)C)c(=O)c3cnc(Nc4ccc(N5CCN(C)CC5)c(C)c4)nc32)c1")
40

Exam item: Sample C=CC(=O)Nc1cccc(-n2c(=O)n(C(C)C)c(=O)c3cnc(Nc4ccc(N5CCN(C)CC5)cc4OC)nc32)c1 — what was its Ratio IC50?
Marked response: 36

* * *

Task for the reader: assign each of the following compounds its reported pIC50.
- Test system: NCI-H1975
- experimentNotes: Antiproliferative activity against human NCI-H1975 cells harboring EGFR L858R/T790M double mutant after 72 hrs by SRB assay
- Type: functional, cell-based
- conditionDescription: NCI-H1975, 72 h
One number for each entry, as −log10 of the molar value.

The cases that follow already have their pIC50 on record.
>>> recordedmeasurement("C=CC(=O)Nc1cccc(-n2c(=O)n(CCc3ccccc3)c(=O)c3cnc(Nc4ccc(N5CCC(N(C)C)CC5)cc4OC)nc32)c1")
6.72
>>> recordedmeasurement("C=CC(=O)Nc1cccc(-n2c(=O)n(C(C)C)c(=O)c3cnc(Nc4ccc(N5CCN(C)CC5)c(C)c4)nc32)c1")
7.62
>>> recordedmeasurement("C=CC(=O)Nc1cccc(-n2c(=O)n(C(C)C)c(=O)c3cnc(Nc4ccc(N5CCN(C)CC5)cc4OC)nc32)c1")
7.36
>>> recordedmeasurement("C=CC(=O)Nc1cccc(-n2c(=O)n(CC)c(=O)c3cnc(Nc4ccc(N5CCC(N(C)C)CC5)cc4OC)nc32)c1")
6.76
>>> recordedmeasurement("C=CC(=O)Nc1cccc(-n2c(=O)n(Cc3ccccc3)c(=O)c3cnc(Nc4ccc(N5CCC(N(C)C)CC5)cc4OC)nc32)c1")
6.56

# next compound below
Exam item: Sample C=CC(=O)Nc1cccc(Nc2nc(Nc3ccc(N4CCN(C(C)=O)CC4)cc3OC)ncc2C(F)(F)F)c1 — what was its pIC50?
Marked response: 7.51

* * *

- experimentNotes: Efflux ratio of apparent permeability from apical to basolateral side in MDCK2 cells at 2 uM after 2.5 hrs by LC-MS/MS method
- Assay type: ADME, cell-based, Canis lupus familiaris, MDCK-II
- conditionDescription: dog, MDCK
measuredQuantity: efflux ratio at 2.5 h, 2 µM
Numbers only.

Exam item: Sample C=CC(=O)Nc1cccc(-n2c(=O)n(C(C)C)c(=O)c3cnc(Nc4ccc(N5CCN(C)CC5)cc4OC)nc32)c1 — what was its efflux ratio at 2.5 h, 2 µM?
Marked response: 9.1

* * *

- experimentNotes: Cmax in ICR mouse at 10 mg/kg, po by LC-MS/MS analysis
- Type: ADME, organism-based
- Design: dose 10 mg/kg, route oral
- conditionDescription: in vivo
measuredQuantity: Cmax (ng/mL)
Answers are plain numbers, in ng/mL.

Exam item: Sample C=CC(=O)Nc1cccc(-n2c(=O)n(C(C)C)c(=O)c3cnc(Nc4ccc(N5CCN(C)CC5)cc4OC)nc32)c1 — what was its Cmax?
Marked response: 271

* * *

- experimentNotes: Aqueous solubility in pH 7.4 PBS buffer by UV-Visible spectrophotometric method
- Assay type: physicochemical
measuredQuantity: solubility
Hi, when you answer, please include the unit after the number. Thanks!

>>> recordedmeasurement("C=CC(=O)Nc1cccc(-n2c(=O)n(C(C)C)c(=O)c3cnc(Nc4ccc(N5CCN(C)CC5)cc4OC)nc32)c1")
"262 µg/mL"
>>> recordedmeasurement("C=CC(=O)Nc1cccc(-n2c(=O)n(Cc3ccccc3)c(=O)c3cnc(Nc4ccc(N5CCC(N(C)C)CC5)cc4OC)nc32)c1")
"137 µg/mL"
>>> recordedmeasurement("C=CC(=O)Nc1cccc(-n2c(=O)n(C)c(=O)c3cnc(Nc4ccc(N5CCC(N(C)C)CC5)cc4OC)nc32)c1")
"531 µg/mL"

# next compound below
Exam item: Sample C=CC(=O)Nc1cccc(-n2c(=O)n(C(C)C)c(=O)c3cnc(Nc4ccc(N(C)CCN(C)C)cc4OC)nc32)c1 — what was its solubility?
Marked response: 1050 µg/mL

* * *

- target: Epidermal growth factor receptor (Homo sapiens, UniProt P00533, L858R/T790M)
- Sequence (P00533 25-1210 T790M/L858R limits assumed): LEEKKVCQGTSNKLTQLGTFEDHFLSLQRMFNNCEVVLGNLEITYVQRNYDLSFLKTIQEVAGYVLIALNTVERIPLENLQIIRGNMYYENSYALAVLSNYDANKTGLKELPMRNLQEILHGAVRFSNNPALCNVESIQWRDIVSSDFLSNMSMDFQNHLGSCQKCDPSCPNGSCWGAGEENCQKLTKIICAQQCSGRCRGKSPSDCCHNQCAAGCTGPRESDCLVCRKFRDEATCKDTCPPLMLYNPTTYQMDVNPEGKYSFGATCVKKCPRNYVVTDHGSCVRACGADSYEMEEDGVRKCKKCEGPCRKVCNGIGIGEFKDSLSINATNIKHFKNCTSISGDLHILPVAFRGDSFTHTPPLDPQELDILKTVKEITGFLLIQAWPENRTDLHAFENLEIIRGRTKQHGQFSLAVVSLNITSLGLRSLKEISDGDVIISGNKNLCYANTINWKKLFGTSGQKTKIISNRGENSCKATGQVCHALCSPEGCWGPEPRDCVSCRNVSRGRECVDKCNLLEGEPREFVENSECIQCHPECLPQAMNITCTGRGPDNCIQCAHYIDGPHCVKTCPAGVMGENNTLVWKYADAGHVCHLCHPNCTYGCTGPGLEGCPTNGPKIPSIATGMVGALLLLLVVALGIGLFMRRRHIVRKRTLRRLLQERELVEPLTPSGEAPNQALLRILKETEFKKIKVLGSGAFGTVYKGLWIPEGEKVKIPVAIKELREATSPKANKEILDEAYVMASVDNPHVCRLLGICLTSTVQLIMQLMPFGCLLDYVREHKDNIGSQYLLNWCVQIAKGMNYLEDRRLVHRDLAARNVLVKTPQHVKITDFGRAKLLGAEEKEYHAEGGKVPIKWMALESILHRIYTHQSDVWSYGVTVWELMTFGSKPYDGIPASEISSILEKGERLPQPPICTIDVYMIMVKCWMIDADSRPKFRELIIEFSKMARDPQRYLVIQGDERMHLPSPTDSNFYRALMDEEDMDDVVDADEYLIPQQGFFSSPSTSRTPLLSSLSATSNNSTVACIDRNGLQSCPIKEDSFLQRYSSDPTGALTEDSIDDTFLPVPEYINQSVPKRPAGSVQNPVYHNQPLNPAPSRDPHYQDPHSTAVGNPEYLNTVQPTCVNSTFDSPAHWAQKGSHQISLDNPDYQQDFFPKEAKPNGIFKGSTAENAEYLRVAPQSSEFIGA
- experimentNotes: Inhibition of recombinant human GST-tagged EGFR L858R/T790M double mutant expressed in baculovirus expression system using Poly(Glu,Tyr)4:1 as substrate after 1 hr by ELISA
pIC50: −log10 of the molar value.
Okay, here is how we bin by pIC50: interval 1: < 8; interval 2: ≥ 8 and < 9; interval 3: ≥ 9

Some solved cases for reference:
>>> discretelabel("C=CC(=O)Nc1cccc(-n2c(=O)n(C(C)C)c(=O)c3cnc(Nc4ccc(N5CCN(C)CC5)cc4OC)nc32)c1")
"interval 3"
>>> discretelabel("C=CC(=O)Nc1cccc(-n2c(=O)n(C)c(=O)c3cnc(Nc4ccc(N5CCOCC5)cc4OC)nc32)c1")
"interval 1"
>>> discretelabel("C=CC(=O)Nc1cccc(-n2c(=O)n(C)c(=O)c3cnc(Nc4ccccc4)nc32)c1")
"interval 1"
>>> discretelabel("C=CC(=O)Nc1cccc(-n2c(=O)n(C)c(=O)c3cnc(Nc4ccc(N5CCSCC5)cc4OC)nc32)c1")
"interval 1"

Exam item: Looking at C=CC(=O)Nc1cccc(-n2c(=O)n(CCC)c(=O)c3cnc(Nc4ccc(N5CCC(N(C)C)CC5)cc4OC)nc32)c1 , which class would you pick?
Marked response: interval 3

Exam item: Looking at C=CC(=O)Nc1cccc(-n2c(=O)n(C)c(=O)c3cnc(Nc4ccc(N5CCN(C(C)=O)CC5)cc4OC)nc32)c1 , which class would you pick?
Marked response: interval 1

Exam item: Looking at C=CC(=O)Nc1cccc(-n2c(=O)n(C(C)C)c(=O)c3cnc(Nc4ccc(OCCN(C)C)cc4OC)nc32)c1 , which class would you pick?
Marked response: interval 1

Exam item: Looking at C=CC(=O)Nc1cccc(-n2c(=O)n(Cc3ccccc3)c(=O)c3cnc(Nc4ccc(N5CCC(N(C)C)CC5)cc4OC)nc32)c1 , which class would you pick?
Marked response: interval 2

Exam item: Looking at C=CC(=O)Nc1cccc(-n2c(=O)n(CC)c(=O)c3cnc(Nc4ccc(N5CCC(N(C)C)CC5)cc4OC)nc32)c1 , which class would you pick?
Marked response: interval 2

* * *

- experimentNotes: AUC (0 to t) in ICR mouse at 1 mg/kg, iv by LC-MS/MS analysis
- Type: ADME, organism-based
- conditionDescription: in vivo
measuredQuantity: AUC(0-t) (ng·h/mL)
Answers are plain numbers, in ng·h/mL.

Exam item: Sample C=CC(=O)Nc1cccc(-n2c(=O)n(C(C)C)c(=O)c3cnc(Nc4ccc(N5CCN(C)CC5)cc4OC)nc32)c1 — what was its AUC(0-t)?
Marked response: 181

* * *

Task for the reader: assign each of the following compounds its reported pIC50.
- System: NCI-H1975
- experimentNotes: Antiproliferative activity against human NCI-H1975 cells harboring EGFR L858R/T790M double mutant after 72 hrs by SRB assay
- Assay type: functional, cell-based
- conditionDescription: NCI-H1975, 72 h
Numbers only, as −log10 of the molar value.

The cases that follow already have their pIC50 on record.
>>> recordedmeasurement("C=CC(=O)Nc1cccc(-n2c(=O)n(C)c(=O)c3cnc(Nc4ccc(N5CCSCC5)cc4OC)nc32)c1")
6.24
>>> recordedmeasurement("C=CC(=O)Nc1cccc(-n2c(=O)n(C(C)C)c(=O)c3cnc(Nc4ccc(OCCN(C)C)cc4OC)nc32)c1")
7.00

# next compound below
Exam item: Sample C=CC(=O)Nc1cccc(-n2c(=O)n(CCCc3ccccc3)c(=O)c3cnc(Nc4ccc(N5CCC(N(C)C)CC5)cc4OC)nc32)c1 — what was its pIC50?
Marked response: 6.45

* * *

- experimentNotes: Apparent volume of distribution in ICR mouse at 1 mg/kg, iv by LC-MS/MS analysis
- Format: ADME, organism-based
- conditionDescription: in vivo, read-out: Vz
measuredQuantity: Vd (L/kg)
Numbers only, in L/kg.

Exam item: Sample C=CC(=O)Nc1cccc(-n2c(=O)n(C(C)C)c(=O)c3cnc(Nc4ccc(N5CCN(C)CC5)cc4OC)nc32)c1 — what was its Vd?
Marked response: 4.53

* * *

- experimentNotes: Tmax in ICR mouse at 1 mg/kg, iv by LC-MS/MS analysis
- Type: ADME, organism-based
- conditionDescription: in vivo
measuredQuantity: Tmax (min)
Give bare numbers, in min.

Exam item: Sample C=CC(=O)Nc1cccc(-n2c(=O)n(C(C)C)c(=O)c3cnc(Nc4ccc(N5CCN(C)CC5)cc4OC)nc32)c1 — what was its Tmax?
Marked response: 6
